metric.name: melting point (°C)
Note: unit °C is implicit; provide only the numeric part.

Which value of melting point has been reported for `CCCN(CCCCC12CC3CC(CC(C3)C1)C2)C(=O)NCCCc1ccncc1` in the records?
110

Repeat with Cn1nnc2ccc(C(O)c3ccccc3)cc21 (stereo not given)
145

Repeat with `CC(C)c1ccc2[nH]c3c(c2c1)Cc1ccccc1-3`
193

Repeat with `CCOC(=O)CCCn1c(=O)[nH]c2ccccc21`
88

====

I'd appreciate it if you could supply melting point values for the items below.

Which value of melting point has been reported for `CCCCC=C1SC(=S)N(N=c2sc3ccccc3s2)C1=O` in the records?
210 to 212 °C

Repeat with `CC(=O)Nc1ccc(OCCCOc2ccc(Cl)c(Cl)c2)cc1`
135 to 137 °C

Repeat with `Cc1nc(C)c(C=O)c(N)n1`
148 to 156 °C

Repeat with `O=C1CN(c2ccc(Cc3ccccc3)cc2)C(=S)N1Cc1ccccc1`
107 °C

Repeat with `C=CCC(CC=C)(CC=C)C(=O)O[C@H]1C[C@H](O)C=C2C=C[C@H](C)[C@H](CC[C@@H]3C[C@@H](O)CC(=O)O3)[C@H]21`
118 to 119 °C

Repeat with `N#CCc1coc2ccc(Br)cc12`
120 °C

Repeat with Nc1c(F)c(N2CCC(c3ccccn3)C2)c(F)c2c1c(=O)c(C(=O)O)cn2C1CC1 (stereo unspecified)
206 to 208 °C

Repeat with `COc1nc2ccc(Br)cc2c2c1C(=O)c1ccccc1-2`
208 to 210 °C

Repeat with COc1ccccc1NC(=O)NC1N=C(c2ccc(Cl)cc2)c2c(sc(C)c2C)-n2c(C)nnc21 (stereo unspecified)
261 to 262 °C

Repeat with COP(=O)(OC)C1OC(=O)c2ccccc21 (stereo unspecified)
95 to 96.5 °C

Repeat with CC(Cl)C(=O)N1c2ccccc2C(=O)Nc2cccnc21 (stereo unspecified)
215 to 218 °C

Repeat with `CC(C)(C)c1cc(O)c(N)c([N+](=O)[O-])c1`
180 to 181 °C

Repeat with O=C(C=Cc1ccccc1)c1cccc(NC(=O)c2ccn3c2CSC3c2cccnc2)c1 (stereo unspecified)
190 °C

Repeat with `CCOC(=O)COc1cccc2c1OCCC2=O`
56 to 66 °C

Repeat with `O=C(c1ccc(O)cc1)c1ccc(OCCBr)cc1`
136 to 138 °C

Repeat with `CCOC(=O)C(=CN(CC)c1cccs1)C(=O)OCC`
41 to 42 °C

Repeat with CCC(Oc1ccc(S(=O)(=O)c2ccc(C)nc2Nc2c(C)cc(C)cc2C)cc1)C(=O)OC (stereo unspecified)
111 to 113 °C

Repeat with `CN(N=Cc1ccc(Br)cc1)C(=O)c1[nH]c2ccccc2c1-c1ccccc1`
210 to 212 °C

Repeat with `CCCCNC(=O)[C@@H]1Cc2ccccc2CN1`
58 to 60 °C

Repeat with O=C(O)c1ccnc(NC(=O)C(Cc2ccccc2)NP(=O)(O)O)c1 (stereo unspecified)
135 to 137 °C

Repeat with `COC(=O)c1nc(CCl)n(-c2ccc(Cl)cc2C(=O)c2ccccc2Cl)n1`
130 to 132 °C

====

metric.name: melting point

Which value of melting point has been reported for `CCCOc1ccccc1-c1nc2ncccc2c(=O)[nH]1` in the records?
110 to 111 °C

Repeat with `Cc1cc2c(C)c(O)c(O)c(C(=O)O)c2cc1Cc1ccccc1`
179 to 180 °C

Repeat with `CC(C)(C)c1ccc(CN2CCC3(CC2)CC(=O)c2ccccc2O3)cc1`
149 to 151 °C

Repeat with `CN(C)CCC=Cc1ccc2c(c1)CCCN2C(=O)c1ccc(-c2ccc(Cl)cc2)cc1`
142 to 144 °C

Repeat with CC(Cc1ccc(OCc2ccccc2)cc1)C(=O)O (stereo unspecified)
93 to 95 °C

Repeat with O=C(O)C1CCc2ccccc2O1 (single isomer, unassigned; (+))
85.5 °C

Repeat with OC(CN1CCN(c2ccccn2)CC1)(Cn1cncn1)c1ccc(Cl)cc1Cl (stereo unspecified)
116 to 118 °C

Repeat with `O=C(CCl)c1ccc2c(c1)Cc1cc(C(=O)CCl)ccc1S2`
175 to 177 °C

Repeat with `Cc1ncc2n1-c1ccc(Cl)cc1C(c1ccccc1)=NC2`
187 to 188 °C

Repeat with CC(NS(=O)(=O)c1ccc([N+](=O)[O-])cc1[N+](=O)[O-])c1ccccc1 (stereo unspecified)
160 to 161 °C

Repeat with CC(C)(C)N(O)CC(O)c1cc(F)c(N)c(Br)c1 (stereo unspecified)
122 to 125 °C

Repeat with CCC1OCCn2c1nc(C(=O)NCc1ccc(F)cc1-n1cncn1)c(OCc1ccccc1)c2=O (stereo unspecified)
155 to 157 °C

Repeat with `Cn1c(=O)c(C#N)c(Cl)c2cc(F)ccc21`
258 °C

Repeat with `N#Cc1cncc(-c2ccc3c(c2)C2(CCCCC2)C(=O)N3)c1`
232 to 234 °C

Repeat with CC(=O)OC1CSC(Oc2ccc(C#N)nc2)C(OC(C)=O)C1OC(C)=O (stereo unspecified)
147 °C

Repeat with `Cc1nn(-c2c(Cl)cc(C(F)(F)F)cc2Cl)c(N)c1SC(C)(F)F`
123 to 125 °C

Repeat with `Brc1ccc(-c2ccc(Br)cc2I)c(I)c1`
89 °C

Repeat with `C[C@@H](NC(=O)c1csc(-c2ccccc2)n1)[C@](O)(Cn1cncn1)c1ccc(F)cc1F`
174 to 175 °C

Repeat with `O=C1CCN(C(=S)Nc2ccc(Cl)cc2)N1c1ccc(Cl)cc1`
121 to 124 °C

Repeat with CN(C)C1CC2(C)C(=O)CCC2C2CCC3CC(O)CCC3(C)C21 (stereo unspecified)
135 to 136 °C

Repeat with `COc1ccc(C(F)(F)F)cc1-n1c(=O)[nH]c2cc(C(F)(F)F)ccc21`
226 °C

Repeat with CC(=O)N1CCN(C(C)c2ccc(-c3ccc(Cl)cc3)cc2)CC1 (stereo unspecified)
120 to 121 °C

Repeat with CCNS(=O)(=O)/C=C/C1=C(C)NC(C)=C(C(=O)OC(C)C)C1c1cccc([N+](=O)[O-])c1 (stereo unspecified)
187 to 189 °C

Repeat with O=c1[nH]c(=S)nc2n1C(c1ccc(F)cc1)CO2 (stereo unspecified)
211 to 217 °C

Repeat with `O=C(NCCc1cccc(-c2nc(=O)c3ccccc3s2)n1)Nc1ccccc1`
235 to 236 °C

Repeat with `CCOC(=O)c1cnc2c(N)c(Cl)c(F)cc2c1O`
268 to 270 °C

Repeat with `COc1ccc(COCc2nc(C(C)C)c(Sc3cc(Cl)cc(Cl)c3)n2CC(=O)c2ccccc2)cc1`
205 to 211 °C

Repeat with `CSc1ccc(C2C(=O)c3ccccc3C2=O)cc1`
153 to 155 °C

Repeat with `CCCNC(=O)NCCCCN1CCC(CNC(=O)c2cc(Cl)c(N)cc2OC)CC1`
114 to 115 °C

Repeat with `c1nc(Nc2ccc3[nH]ccc3c2)c2sc(-c3ccc(CNCCN4CCOCC4)cc3)cc2n1`
100 to 111 °C

Repeat with O=C1CCC(N2C(=O)c3cccc(NCC(=O)NC4CC4)c3C2=O)C(=O)N1 (stereo unspecified)
240 to 242 °C

Repeat with CN1CCC(=O)C(c2cccc(C(F)(F)F)c2)C1 (stereo unspecified)
64 to 65 °C

Repeat with CCOC(=O)C1C=CC(c2ccccc2)n2c(=O)n(CCl)c(=O)n21 (stereo unspecified)
145 to 146 °C

Repeat with `CCC(CC)C(=O)Nc1nc(C)co1`
106 °C

Repeat with CC(=O)N1CCN(c2c(C)c(C)c3c(c2C)C(c2ccc(C)cc2)C(C)(C)O3)CC1 (stereo unspecified)
272 to 274 °C

Repeat with `Cc1cc(Cl)ccc1N1CCCNC1=S`
266 to 268 °C

Repeat with `FC(F)(F)c1ccn(-c2cccnc2)n1`
59 to 61 °C

Repeat with `O=c1[nH]c2sc(Cl)c(C3CC3)c2[nH]c1=O`
> 260 °C

Repeat with `Cc1ncnc(-c2ccc(Cl)cc2F)c1Cl`
77 to 79 °C

Repeat with `COCCOc1cc(Cc2cnc(N)nc2N)cc2cccnc12`
253 to 255 °C

Repeat with O=C1c2ccccc2C(O)(c2ccc(Cl)cc2)N1Cc1ccc(Cl)cc1 (stereo unspecified)
156 to 157 °C

====

metric.name: melting point

Which value of melting point has been reported for OC(CCC(c1ccccc1)c1ccccc1)c1cncn1Cc1ccccc1 (centres undefined) in the records?
160 to 168 °C

Repeat with `CN(C)c1ncn2c1C[N+]([O-])=C(c1ccccc1F)c1cc(Cl)ccc1-2`
203 to 206 °C

Repeat with O=C1CN2CCCC1C2 (centres undefined)
83 to 87 °C

Repeat with `Cc1c(F)c(N2CCNCC2)c(Cl)c2c1c(=O)c(C(=O)O)cn2C1CC1`
234 to 235 °C

Repeat with `O=C(Nc1ccccc1-c1ccccc1)OCCCC(=O)c1ccccc1`
87 to 89 °C

Repeat with `CN1CC(C(=O)c2nc(Cc3ccc(F)cc3)co2)=C(O)C1=O`
209 to 210 °C

Repeat with `CN(C)CCOc1ccc(O)c(C=NCCN=Cc2cc(OCCN(C)C)ccc2O)c1`
84 to 86 °C

Repeat with `Cc1cc(C(F)(C(F)(F)F)C(F)(F)F)cc(C)c1NC(=O)c1cc(F)c(C#N)c(NC(=O)c2ccccc2)c1F`
245 to 248 °C

Repeat with `N#Cc1cc(Cl)cc(Oc2ccc(CC(=O)Nc3ccc(S(N)(=O)=O)cc3Cl)cc2Br)c1`
205 to 207 °C

Source listed as a melting point compilation (Tetko et al.; mined from patent text by program, amines drawn as free bases though some values may be those of a salt).
